# measurement-protocol: in vitro
# condition-summary: rat, hepatocytes, pH 7.4
So I've got a bunch of molecules here, and I need their hepatocyte CLint values.
Lab book: enter the figure in µL/min/1e6 cells, no units written.

stdin: What hepatocyte CLint value was documented for this molecule, COc1ccc(-c2ccc(/C=C3\SC(=S)N(CC(=O)O)C3=O)o2)cc1Cl [Compound 1] ?
stdout: 21.6

stdin: Which hepatocyte CLint is reported for this molecule? O=C(O)CN1C(=O)/C(=C/c2ccc(-c3cc(C(F)(F)F)ccc3Cl)o2)SC1=S [Compound 65]
stdout: 19.8

* * *

measured-quantity: IC50 (µM)
Could you give me the number in µM? Just the number is fine.

stdin: Hi! What's the reported IC50 for O=C(O)CCC(C(=O)O)N1C(=O)/C(=C/c2ccc(-c3ccc([N+](=O)[O-])cc3)o2)SC1=S (stereo not shown) on BoNT A (Clostridium botulinum, UniProt P0DPI0)?
stdout: 148

stdin: Find IC50 (BoNT A (Clostridium botulinum, UniProt P0DPI0)) for the entry CC(C)(C)OC(=O)N1CCC(c2nc(/C=C3\SC(=S)N(CC(=O)O)C3=O)cs2)CC1
stdout: 176

stdin: Which measured IC50 belongs to O=C(O)CN1C(=O)/C(=C/c2cn(-c3ccc(F)cc3)nc2-c2ccc(F)cc2)SC1=S , tested on BoNT A (Clostridium botulinum, UniProt P0DPI0)?
stdout: 52.6

The reported measurements were obtained from patent US7947717B2.
